Values were extracted from paper PMC2866172.

Assay: in vitro
Details: monkey, plasma
Quantity Name: fraction unbound at 10 min
Answer field: number only, no words.

Q) Entry CO[C@H]1/C=C/O[C@@]2(C)Oc3c(C)c(O)c4c(O)c(c(/C=N/N5CCN(C)CC5)c(O)c4c3C2=O)NC(=O)/C(C)=C\C=C\[C@H](C)[C@H](O)[C@@H](C)[C@@H](O)[C@@H](C)[C@H](OC(C)=O)[C@@H]1C [RIF, rifampicin] has what fraction unbound at 10 min?
A) 0.273
